Target system: T1, FOLR1-Fc (UniProt P15328 25-234, limits assumed)
T1 construct: also called FOLR1 (ELISA coating); not shown: Fc part
T1 sequence (P15328 25-234 limits assumed): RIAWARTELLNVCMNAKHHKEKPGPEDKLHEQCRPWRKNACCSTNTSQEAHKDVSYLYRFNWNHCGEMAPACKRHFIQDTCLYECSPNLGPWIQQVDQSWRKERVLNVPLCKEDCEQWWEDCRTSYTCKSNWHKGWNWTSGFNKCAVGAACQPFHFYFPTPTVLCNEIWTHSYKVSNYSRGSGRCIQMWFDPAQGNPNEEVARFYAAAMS
Protocol summary: ELISA, FOLR1-Fc coated, antibody titrated
Each record is given True if its reported EC50 is strictly below 2 ng/mL. Records at or above 2 ng/mL are given False.

| Binder | Label |
| --- | --- |
| Modified antibody vAb5 (antibody, V domains shown, Carries modified CDR-H3) VH: EVQLVESGGGVVQPGRSLRLSCSASGFTFSGYGLSWVRQAPGKGLEWVAMISSGGSYTYYADSVKGRFAISRDNAKNTLFLQMDSLRPEDTGVYFCARHGDDVAWFAYWGQGTPVTVSS VL: DIQLTQSPSSLSASVGDRVTITCSVSSSISSNNLHWYQQKPGKAPKPWIYGTSNLASGVPSRFSGSGSGTDYTFTISSLQPEDIATYYCQQWSSYPYMYTFGQGTKVEIK | False |
| Modified antibody vAb4 (antibody, V domains shown, Carries modified CDR-L2) VH: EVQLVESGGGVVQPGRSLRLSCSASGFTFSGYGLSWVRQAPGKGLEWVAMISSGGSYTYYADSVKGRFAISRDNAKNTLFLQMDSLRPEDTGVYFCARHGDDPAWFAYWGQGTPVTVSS VL: DIQLTQSPSSLSASVGDRVTITCSVSSSISSNNLHWYQQKPGKAPKPWIYGTSSRASGVPSRFSGSGSGTDYTFTISSLQPEDIATYYCQQWSSYPYMYTFGQGTKVEIK | True |
| Modified antibody vAb2 (antibody, V domains shown, Carries modified CDR-L1 and CDR-L2) VH: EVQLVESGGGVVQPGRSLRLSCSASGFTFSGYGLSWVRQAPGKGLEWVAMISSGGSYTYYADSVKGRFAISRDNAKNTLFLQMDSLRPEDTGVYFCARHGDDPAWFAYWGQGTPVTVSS VL: DIQLTQSPSSLSASVGDRVTITCSASSGLSSSYLHWYQQKPGKAPKPWIYGTSSRASGVPSRFSGSGSGTDYTFTISSLQPEDIATYYCQQWSSYPYMYTFGQGTKVEIK | False |
| Modified antibody vAb3 (antibody, V domains shown, Carries modified CDR-L1) VH: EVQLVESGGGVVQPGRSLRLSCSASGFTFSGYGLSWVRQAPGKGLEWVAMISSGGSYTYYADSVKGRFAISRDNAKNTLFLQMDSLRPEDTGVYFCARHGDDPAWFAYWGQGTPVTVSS VL: DIQLTQSPSSLSASVGDRVTITCSASSGLSSSYLHWYQQKPGKAPKPWIYGTSNLASGVPSRFSGSGSGTDYTFTISSLQPEDIATYYCQQWSSYPYMYTFGQGTKVEIK | True |
| Modified antibody vAb1 (antibody, V domains shown, Carries modified CDR-H3, CDR-L1 and CDR-L2) VH: EVQLVESGGGVVQPGRSLRLSCSASGFTFSGYGLSWVRQAPGKGLEWVAMISSGGSYTYYADSVKGRFAISRDNAKNTLFLQMDSLRPEDTGVYFCARHGDDVAWFAYWGQGTPVTVSS VL: DIQLTQSPSSLSASVGDRVTITCSASSGLSSSYLHWYQQKPGKAPKPWIYGTSSRASGVPSRFSGSGSGTDYTFTISSLQPEDIATYYCQQWSSYPYMYTFGQGTKVEIK | False |
